B1: FIP200ΔN1115:Luciferase [human] / GST:NDP52 [human] (parent complex)
chain 1: ENYQVGLAELRTLMTIEKDQCISELISRHEEESNILKAELNKVTSLHNQAFEIEKNLKEQIIELQSKLDSELSALERQKDEKITQQEEKYEAIIQNLEKDRQKLVSSQEQDREQLIQKLNCEKDEAIQTALKEFKLEREVVEKELLEKVKHLENQIAKSPAIDSTRGDSSSLVAELQEKLQEEKAKFLEQLEEQEKRKNEEMQNVRTSLIAEQQTNFNTVLTREKMRKENIINDLSDKLKSTMQQQERDKDLIESLSEDRARLLEEKKKLEEEVSKLRSSSFVPSPYVATAPELYGACAPELPGESDRSAVETADEGRVDSAMETSMMSVQENIHMLSEEKQRIMLLERTLQLKEEENKRLNQRLMSQSMSSVSSRHSEKIAIRDFQVGDLVLIILDERHDNYVLFTVSPTLYFLHSESLPALDLKPGEGASGASRRPWVLGKVMEKEYCQAKKAQNRFKVPLGTKFYRVKAVSWNKKV
chain 2: MEETIKDPPTSAVLLDHCHFSQVIFNSVEKFYIPGGDVTCHYTFTQHFIPRRKDWIGIFRVGWKTTREYYTFMWVTLPIDLNNKSAKQQEVQFKAYYLPKDDEYYQFCYVDEDGVVRGASIPFQFRPENEEDILVVTTQGEVEEIEQHNKELCKENQELKDSCISLQKQNSDMQAELQKKQEELETLQSINKKLELKVKEQKDYWETELLQLKEQNQKMSSENEKMGIRVDQLQAQLSTQEKEMEKLVQGDQDKTEQLEQLKKENDHLFLSLTEQRKDQKKLEQTVEQMKQNETTAMKKQQELMDENFDLSKRLSENEIICNALQRQKERLEGENDLLKRENSRLLSYMGLDFNSLPYQVPTSDEGGARQNPGLAYGNPYSGIQESSSPSPLSIKKCPICKADDICDHTLEQQQMQPLCFNCPICDKIFPATEKQIFEDHVFCHSL

# Variants of: B1
# measurement.description: LUMIER assay; HEK293ET cell lysates; bacterially expressed GST bait; read off a plot
result.type: response

The cases that follow already have their response on record.
| variant.name | response |
| --- | --- |
| chain 1 A452S | ~22 fold binding |
| chain 1 T350A | ~51 fold binding |
| chain 1 L351A | ~38 fold binding |
| chain 1 E348A | ~49 fold binding |
| chain 1 F459S | ~52 fold binding |

Below are some variants; for each one, tell me its response.
1. chain 1 R349A
2. chain 1 N457S
3. chain 1 L347A
4. chain 1 V461S
5. chain 1 Q352A

RESULT:
1. ~33 fold binding
2. ~15 fold binding
3. ~42 fold binding
4. ~50 fold binding
5. ~44 fold binding

QUERY: Data request, read-out response, for chain 1 L353A
RESULT: ~32 fold binding
